# Tested on: IL-lb-induced proteoglycan breakdown in bovine nasal cartilage
# MEASUREMENT_NOTES: in vitro cytokine-induced cartilage degradation assay (Bovine Nasal Septum Cartilage Degradation Assay)
# Assay type: cell-based
# REPORTED_CONDITIONS: Bos taurus; IL-lb (500 ng/ml), 40 hours, 37° C.
Quick list: IC50 per entry.
Answer in µM, number only, no unit symbol.

- Cc1cc([N+](=O)[O-])ccc1-n1sc(-c2ccccc2)cc1=O [Example 17]: 14

Please give the measured IC50 for this compound: O=c1cc(-c2ccccc2)sn1-c1ccc(Cl)cc1 [Example 13]
14.8

Please give the measured IC50 for this compound: CCOC(=O)c1ccccc1-n1sc(-c2ccccc2)cc1=O [Example 38]
12

Please give the measured IC50 for this compound: COc1cccc(-n2sc(-c3ccccc3)cc2=O)c1 [Example 20]
19

Please give the measured IC50 for this compound: O=c1cc(-c2ccccc2)sn1-c1ccc(C(F)(F)F)cc1 [Example 15]
7.2

Please give the measured IC50 for this compound: N#Cc1ccc(-n2sc(-c3ccccc3)cc2=O)cc1 [Example 18]
7.8

* * *

# Tested on: IL-lb-induced proteoglycan breakdown in bovine nasal cartilage
# MEASUREMENT_NOTES: in vitro cytokine-induced cartilage degradation assay (Bovine Nasal Septum Cartilage Degradation Assay)
# Type: cell-based
# REPORTED_CONDITIONS: Bos taurus; IL-lb (500 ng/ml), 40 hours, 37° C.
MEASURED_PARAMETER: pIC50
Lab note: report pIC50 as minus log10 of the concentration in molar units, number only.

The cases that follow already have their pIC50 on record.
• O=c1cc(-c2ccccc2)sn1-c1nc2ccccc2s1 = 4.82
• CCOC(=O)c1ccc(-n2sc(-c3ccccc3)cc2=O)cc1 = 5.08
• O=c1cc(-c2ccccc2)sn1-c1cccc(Cl)c1 = 4.95
• CCOC(=O)c1cccc(-n2sc(-c3ccccc3)cc2=O)c1 = 5.11

Let us move to another entry and its pIC50.
Please give the measured pIC50 for this molecule: COc1ccccc1-c1cc(=O)n(-c2ccccc2)s1
4.46
